Values from patent US20230295118A1

molecular target: CDK4 (Homo sapiens); construct: endogenous in cells; experiment: CDK4 degradation (DC50, Dmax); type: cell-based
Each item that follows carries a reported DC50.

Sample answers from the record:
CC(=O)c1c(C)c2cnc(Nc3ccc(N4CCN(CC5CN(c6ccc(NC7CCC(=O)NC7=O)cc6)C5)CC4)cn3)nc2n(C2CCCC2)c1=O (stereo not drawn) : < 50 nM
CC(=O)c1c(C)c2cnc(Nc3ccc(N4CCN(CC5CCN(C(=O)Nc6ccc7c(c6)C(=O)N(C6CCC(=O)NC6=O)C7=O)CC5)CC4)cn3)nc2n(C2CCCC2)c1=O (stereo not drawn) : < 50 nM

Pending compound:
Enquiry: Provide value of DC50 for this record tested with CDK4 (Homo sapiens): CC(=O)c1c(C)c2cnc(Nc3ccc(N4CCN(CCCCNc5ccc6c(c5)CN(C5CCC(=O)NC5=O)C6=O)CC4)cn3)nc2n(C2CCCC2)c1=O (stereo not drawn)
Return: 50 to 200 nM

---

Measured Dmax of individual entries
biological target: CDK4 (Homo sapiens); construct: endogenous in cells; test: CDK4 degradation (DC50, Dmax); assay type: cell-based

CC(=O)c1c(C)c2cnc(Nc3ccc(N4CCN(CCC5CCN(C(=O)Nc6ccc7c(c6)CN(C6CCC(=O)NC6=O)C7=O)CC5)CC4)cn3)nc2n(C2CCCC2)c1=O (centres unmarked) [Compound 46] : > 60%
Cc1nc2c(F)cc(-c3nc(Nc4ccc(CN5CCN(CC6CCN(c7ccc(C(=O)NC8CCC(=O)NC8=O)cc7)CC6)CC5)cn4)ncc3F)cc2n1C(C)C (centres unmarked) [Compound 151] : > 80%
CC(=O)c1c(C)c2cnc(Nc3ccc(N4CCN(CCCCN(C)c5ccc6c(c5)C(=O)N(C5CCC(=O)NC5=O)C6=O)CC4)cn3)nc2n(C2CCCC2)c1=O (centres unmarked) [Compound 59] : > 60%
Cc1nc2c(F)cc(-c3nc(Nc4ccc(CC5CCN(C(=O)C6CN(c7ccc8c(c7)C(=O)N(C7CCC(=O)NC7=O)C8=O)C6)CC5)cn4)ncc3F)cc2n1C(C)C (centres unmarked) [Compound 143] : > 80%
Cc1nc2c(F)cc(-c3nc(Nc4ccc(CN5CCN(CC6CCN(c7ccc8c(c7)C(=O)N(C7CCC(=O)NC7=O)C8=O)CC6)CC5)cn4)ncc3F)cc2n1C(C)C (centres unmarked) [Compound 149] : > 80%

Enquiry: Lab note: need Dmax for CC(=O)c1c(C)c2cnc(Nc3ccc(N4CCN(CCCCN(C)c5ccc6c(c5)CN(C5CCC(=O)NC5=O)C6=O)CC4)cn3)nc2n(C2CCCC2)c1=O (centres unmarked) [Compound 60] on CDK4 (Homo sapiens), anyone have it?
Return: > 60%

Enquiry: Please tell me: Dmax of CC(=O)c1c(C)c2cnc(Nc3ccc(N4CCN(C5CCN(C(=O)N6CCC(N7CCN(c8ccc9c(c8)C(=O)N(C8CCC(=O)NC8=O)C9=O)CC7)CC6)CC5)CC4)cn3)nc2n(C2CCCC2)c1=O (centres unmarked) [Compound 88] , system CDK4 (Homo sapiens)?
Return: > 60%

Enquiry: # returns recorded Dmax (system: CDK4 (Homo sapiens)) for Cc1nc2c(F)cc(-c3nc(Nc4ccc(CN5CCN(C(=O)C6CN(c7ccc(C(=O)NC8CCC(=O)NC8=O)cc7)C6)CC5)cn4)ncc3F)cc2n1C(C)C (centres unmarked) [Compound 137]
Return: > 60%

Enquiry: State its Dmax on CDK4 (Homo sapiens): Cc1nc2c(F)cc(-c3nc(Nc4ccc(CN5CCN(C6CN(c7ccc8c(c7)C(=O)N(C7CCC(=O)NC7=O)C8=O)C6)CC5)cn4)ncc3F)cc2n1C(C)C (centres unmarked) [Compound 147]
Return: > 60%

Enquiry: Give Dmax (CDK4 (Homo sapiens)) of the following molecule: CC(=O)c1c(C)c2cnc(Nc3ccc(N4CCN(C(=O)C5CN(c6ccc7c(c6)C(=O)N(C6CCC(=O)NC6=O)C7=O)C5)CC4)cn3)nc2n(C2CCCC2)c1=O (centres unmarked) [Compound 121]
Return: > 80%

Enquiry: Observed Dmax on CDK4 (Homo sapiens) for Cc1nc2c(F)cc(-c3nc(Nc4ccc(CC5CCN(C(=O)C6CN(c7ccc(NC8CCC(=O)NC8=O)cc7)C6)CC5)cn4)ncc3F)cc2n1C(C)C (centres unmarked) [Compound 146] , please.
Return: > 50%

---

molecular target: CDK4 (Homo sapiens, UniProt P11802); construct: endogenous in cells; assay: CDK4 degradation (DC50, Dmax); format: cell-based
Sequence (P11802 whole entry): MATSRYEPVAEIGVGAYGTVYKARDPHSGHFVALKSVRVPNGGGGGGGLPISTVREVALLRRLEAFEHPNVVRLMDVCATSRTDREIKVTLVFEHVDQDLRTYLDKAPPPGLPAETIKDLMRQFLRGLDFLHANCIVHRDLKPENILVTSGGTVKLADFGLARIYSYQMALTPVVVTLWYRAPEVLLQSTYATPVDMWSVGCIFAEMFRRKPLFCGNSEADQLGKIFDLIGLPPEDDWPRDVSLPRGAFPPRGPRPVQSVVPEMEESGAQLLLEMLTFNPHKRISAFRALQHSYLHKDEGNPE
Entries and their Dmax values follow.

Cc1nc2c(F)cc(-c3nc(Nc4ccc(CN5CCN(CC6CN(c7ccc(N8CCC(=O)NC8=O)cc7)C6)CC5)cn4)ncc3F)cc2n1C(C)C [Compound 106] : > 80%

Enquiry: Which Dmax value is on record for CC(=O)c1c(C)c2cnc(Nc3ccc(N4CCN(CCN5CCN(C(=O)Nc6ccc7c(c6)CN(C6CCC(=O)NC6=O)C7=O)CC5)CC4)cn3)nc2n(C2CCCC2)c1=O (centres unmarked) [Compound 44] ?
Return: > 60%

Enquiry: # get_value(readout='Dmax', item= CC(=O)c1c(C)c2cnc(Nc3ccc(N4CCN(CC5CCN(C(=O)Nc6ccc7c(c6)C(=O)N(C6CCC(=O)NC6=O)C7=O)CC5)CC4)cn3)nc2n(C2CCCC2)c1=O (centres unmarked) [Compound 41] )
Return: > 80%

Enquiry: Given the compound CC(=O)c1c(C)c2cnc(Nc3ccc(N4CCN(C(=O)N5CCC(CCN6CCC(c7ccc8c(c7)CN(C7CCC(=O)NC7=O)C8=O)CC6)CC5)CC4)cn3)nc2n(C2CCCC2)c1=O (centres unmarked) [Compound 30] , what is its reported Dmax?
Return: > 50%

Enquiry: Quick one: Dmax for Cc1nc2c(F)cc(-c3nc(Nc4ccc(CN5CCN(CC6CN(c7ccc(C(=O)NC8CCC(=O)NC8=O)cc7)C6)CC5)cn4)ncc3F)cc2n1C(C)C (centres unmarked) [Compound 133] ?
Return: > 80%

Enquiry: # lookup: Dmax of CC(=O)c1c(C)c2cnc(Nc3ccc(N4CCN(CCCCNc5ccc6c(c5)C(=O)N(C5CCC(=O)NC5=O)C6=O)CC4)cn3)nc2n(C2CCCC2)c1=O (centres unmarked) [Compound 53]
Return: > 60%

Enquiry: Name the recorded Dmax for CC(=O)c1c(C)c2cnc(Nc3ccc(N4CCN(CC5CCN(C(=O)N6CCC(CCN7CCN(c8ccc9c(c8)C(=O)N(C8CCC(=O)NC8=O)C9=O)CC7)CC6)CC5)CC4)cn3)nc2n(C2CCCC2)c1=O (centres unmarked) [Compound 83] .
Return: > 50%

Enquiry: Dear colleague, I am looking for the recorded Dmax of the following compound: CC(=O)c1c(C)c2cnc(Nc3ccc(N4CCN(C(=O)N5CCC(CN6CCC(c7ccc8c(c7)C(=O)N(C7CCC(=O)NC7=O)C8=O)CC6)CC5)CC4)cn3)nc2n(C2CCCC2)c1=O (centres unmarked) [Compound 17]
Return: > 50%

---

target: CDK6 (Homo sapiens, UniProt Q00534); construct: endogenous in cells; assay: CDK6 degradation (DC50, Dmax); format: cell-based
Sequence (Q00534 whole entry): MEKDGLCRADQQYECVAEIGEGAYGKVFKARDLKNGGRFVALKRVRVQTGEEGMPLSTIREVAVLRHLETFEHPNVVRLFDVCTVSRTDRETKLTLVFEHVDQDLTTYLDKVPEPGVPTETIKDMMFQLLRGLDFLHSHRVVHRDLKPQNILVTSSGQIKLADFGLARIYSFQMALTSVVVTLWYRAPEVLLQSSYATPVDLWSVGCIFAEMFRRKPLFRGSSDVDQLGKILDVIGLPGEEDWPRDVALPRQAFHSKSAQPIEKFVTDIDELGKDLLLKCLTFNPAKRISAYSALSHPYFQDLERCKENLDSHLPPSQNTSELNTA
READOUT NAME: DC50

Cc1nc2c(F)cc(-c3nc(Nc4ccc(CC5CCN(C(=O)C6CCN(c7ccc8c(c7)CN(C7CCC(=O)NC7=O)C8=O)CC6)CC5)cn4)ncc3F)cc2n1C(C)C (centres unmarked) [Compound 162] : > 200 nM
Cc1nc2c(F)cc(-c3nc(Nc4ccc(CN5CCN(C(=O)C6CCN(c7ccc(NC8CCC(=O)NC8=O)cc7)CC6)CC5)cn4)ncc3F)cc2n1C(C)C (centres unmarked) [Compound 156] : 50 to 200 nM
Cc1nc2c(F)cc(-c3nc(Nc4ccc(CN5CCN(C6CN(c7cccc8c7C(=O)N(C7CCC(=O)NC7=O)C8=O)C6)CC5)cn4)ncc3F)cc2n1C(C)C (centres unmarked) [Compound 98] : 50 to 200 nM
CC(=O)c1c(C)c2cnc(Nc3ccc(N4CCN(CC5CN(c6ccc(NC7CCC(=O)NC7=O)cc6)C5)CC4)cn3)nc2n(C2CCCC2)c1=O (centres unmarked) [Compound 120] : 50 to 200 nM
CC(=O)c1c(C)c2cnc(Nc3ccc(N4CCN(C(=O)N5CCC(CN6CCC(c7ccc8c(c7)CN(C7CCC(=O)NC7=O)C8=O)CC6)CC5)CC4)cn3)nc2n(C2CCCC2)c1=O (centres unmarked) [Compound 18] : > 200 nM
CC(=O)c1c(C)c2cnc(Nc3ccc(N4CCN(CC5CCN(C(=O)N6CCN(c7ccc8c(c7)C(=O)N(C7CCC(=O)NC7=O)C8=O)CC6)CC5)CC4)cn3)nc2n(C2CCCC2)c1=O (centres unmarked) [Compound 31] : 50 to 200 nM

Enquiry: Notebook entry, CDK6 (Homo sapiens, UniProt Q00534) assay: DC50 of Cc1nc2c(F)cc(-c3nc(Nc4ccc(CN5CCN(CC6CCCN(c7ccc(N8CCC(=O)NC8=O)cc7)C6)CC5)cn4)ncc3F)cc2n1C(C)C (centres unmarked) [Compound 110] = ?
Return: < 50 nM

Enquiry: Recall the recorded DC50 for CC(=O)c1c(C)c2cnc(Nc3ccc(N4CCN(C5CN(c6ccc(C(=O)NC7CCC(=O)NC7=O)cc6)C5)CC4)cn3)nc2n(C2CCCC2)c1=O (centres unmarked) [Compound 102] with CDK6 (Homo sapiens, UniProt Q00534) and state it.
Return: 50 to 200 nM

Enquiry: Kindly state the measured DC50 obtained for Cc1nc2c(F)cc(-c3nc(Nc4ccc(CN5CCN(C6CN(c7ccc(C(=O)NC8CCC(=O)NC8=O)cc7)C6)CC5)cn4)ncc3F)cc2n1C(C)C (centres unmarked) [Compound 96] with CDK6 (Homo sapiens, UniProt Q00534).
Return: < 50 nM
